Test: Plasma concentrations of TAM, TOR and their metabolites by LC–MS/MS (screening study)
Settings: patients on TAM 20 mg a day, N=182
Hi there, I'd appreciate the recorded Plasma concentration, median for every entry that follows.
Number only, in ng/mL; omit the unit.

[ask] // lookup Plasma concentration, median for CC/C(=C(\c1ccccc1)c1ccc(OCCN(C)C)cc1)c1ccccc1
[reply] 163.0

[ask] Please look up its Plasma concentration, median: CC/C(=C(\c1ccccc1)c1ccc(OCCNC)cc1)c1ccccc1
[reply] 271.0

[ask] Which Plasma concentration, median value is on record for CC/C(=C(\c1ccc(O)cc1)c1ccc(OCCN(C)C)cc1)c1ccccc1 ?
[reply] 3.3

[ask] Fill in: Plasma concentration, median of CC/C(=C(\c1ccc(O)cc1)c1ccc(OCCNC)cc1)c1ccccc1 [Endoxifen, endoxifen] is ___
[reply] 22.8

Values from paper PMC6694038
